test: Solution test: time taken for complete dissolving in ethanol/water; assay type: physicochemical; details: 5 g in 95 g ethanol/water (equal weight contents), 20° C., stirred, optical determination
Form field: Time taken for complete dissolving (one value per entry).
All answers are understood in s, so give the number only.

Would you please look over these solved cases?
CC1CCC(C(C)C)C(O)C1 (stereo not shown)
504
CC(C)[C@@H]1CC[C@@H](C)C[C@H]1O [Crystals of natural menthol, I-menthol]
255
CC(C)[C@@H]1CC[C@@H](C)C[C@H]1O [Menthol crystals from Example 1, I-menthol]
170

Consider the additional molecule presented here.
Please fill in: Time taken for complete dissolving reported for CC(C)[C@@H]1CC[C@@H](C)C[C@H]1O [Menthol crystals in lump form, obtained by storage of the me] [I-menthol] = 280
